The measured values listed here are drawn from patent US20240349727A1.

- Test system: Alternaria radicina
- Test: In vitro fungitoxic activity, 48-well PDA outgrowth, curative
- Assay type: cell-based
- Protocol Conditions: 168 h, fungicide alone, curative, 7 days at 20° C., read-out: EC50 fungicide
- Protocol: All the experiments were done in the same way, with small differences between curative and preventive cases. […] After 7 days of incubation at 20° C. in a controlled growth chamber, the fungal outgrowth was measured and the EC50 was calculated with a 4-parameter logistic regression in XLSTAT. Afterward, a concentration of the fungicides at which the fungi is not growing (i.e. […] the EC50) was determined. […] As before, the fungal outgrowth was measured after 7 days of incubation. […]
Test Readout: pEC50
Scale: pEC50 equals -log10([C]), with [C] in mol/L.

Cc1cc(C)nc(Nc2ccccc2)n1: 5.52

Okay, next one:
Look up pEC50: CC(C)(C)C(O)(CCc1ccc(Cl)cc1)Cn1cncn1 (centres unmarked)
4.52
